Record form. Attribute: ASMS ratio (%) n = 1. Fill in for each entry.
Assayed target: Bcl-2 protein (Recombinant Human Bcl-2 Protein) (Homo sapiens)
Construct: purchased Novus NBP2-34889
Sequence (P10415 whole entry): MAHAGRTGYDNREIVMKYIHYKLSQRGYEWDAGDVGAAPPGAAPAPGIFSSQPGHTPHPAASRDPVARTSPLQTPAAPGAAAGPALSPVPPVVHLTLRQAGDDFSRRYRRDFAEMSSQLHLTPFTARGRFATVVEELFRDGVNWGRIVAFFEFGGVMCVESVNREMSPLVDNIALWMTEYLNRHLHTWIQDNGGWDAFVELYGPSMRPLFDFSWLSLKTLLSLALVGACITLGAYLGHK
Procedure text: Binding evaluation of mixture library compounds to Bcl-2 using AS-MS (affinity selection mass spectrometry)
Run conditions: AS-MS, mixture of 1200 compounds, Bcl-2; ASMS Ratio(%)=(A−C)/B×100; replicate n = 1
Reply with just the number (in %).

// lookup ASMS ratio (%) n = 1 | system=Bcl-2 protein (Recombinant Human Bcl-2 Protein) (Homo sapiens) | key= `CCOc1cncc(-c2cnn(-c3cc(C(=O)N4CCN(c5ccc(C(=O)NCC(F)(F)F)nn5)CC4)cc(C(F)(F)F)c3)c2)c1` 1.4

What do we get for `CCOc1cccc(-c2ccc(CN3CCN(c4ccc(C(=O)NCC56CC7CC(CC(C7)C5)C6)nn4)CC3)cc2C)c1` ? 3.2

What do we get for `CCOc1cccc(-c2cnn(-c3cc(C(=O)N4CCN(c5ccc(C(=O)NCC67CC8CC(CC(C8)C6)C7)nn5)CC4)cc(C(F)(F)F)c3)c2)c1` ? −1.3

What do we get for `CCOc1cncc(-c2cc(CN3CCN(c4ccc(C(=O)NCC56CC7CC(CC(C7)C5)C6)nn4)CC3)cc(C(F)(F)F)c2)c1` ? 18.7

What do we get for `CCOc1cncc(C#Cc2cc(C(=O)N3CCN(c4ccc(C(=O)NCC56CC7CC(CC(C7)C5)C6)cc4)CC3)cc(C(F)(F)F)c2)c1` ? 12.5

What do we get for `CCOc1cncc(-c2ccc(C(=O)N3CCN(c4ccc(C(=O)NCC(F)(F)F)nn4)CC3)c3ccccc23)c1` ? −0.3

What do we get for `CCOc1cncc(C#Cc2ccccc2C(=O)N2CCN(c3ccc(C(=O)NCC45CC6CC(CC(C6)C4)C5)nn3)CC2)c1` ? 3.0

What do we get for `CCOc1cccc(-c2ccc(C(=O)N3CCN(c4ccc(C(=O)NCC56CC7CC(CC(C7)C5)C6)cc4)CC3)cc2C)c1` ? 7.4

What do we get for `CCOc1cncc(-c2ccc(CN3CCN(c4ccc(C(=O)NCC56CC7CC(CC(C7)C5)C6)nn4)CC3)c3ccccc23)c1` ? 2.6

What do we get for `CCOc1cncc(-c2cc(CN3CCN(c4ccc(C(=O)NCC56CC7CC(CC(C7)C5)C6)cc4)CC3)cc(OCC)c2)c1` ? 9.7

What do we get for `CCOc1cncc(-c2ccc(CN3CCN(c4ccc(C(=O)NCC56CC7CC(CC(C7)C5)C6)cc4)CC3)c(CC)c2)c1` ? 0.6

What do we get for `CCOc1cncc(-c2ccc(C(=O)N3CCN(c4ccc(C(=O)NCC56CC7CC(CC(C7)C5)C6)cc4)CC3)cc2C)c1` ? 3.0

What do we get for `CCOc1cncc(-c2ccc(CN3CCN(c4ccc(C(=O)NCC(F)(F)F)cc4)CC3)c(OC)c2)c1` ? 0.0

What do we get for `CCCNC(=O)c1ccc(N2CCN(Cc3ccccc3C#Cc3cncc(OCC)c3)CC2)cc1` ? 0.9
